test: Steady-state plasma concentrations of polymyxin B (total of B1, B2, B1-Ile) by LC-MS/MS; format: in vivo; details: human, iv, patient ID 14, TIME 50.5, DOSE 100 at 0, 50 at 12, 24, 36, 50.8, DUR 1, WT 60, CCR 111.4, ALB 25.4, APACHE 25, single measurement, read-out: OUT (observed polymyxin B plasma concentration)
Positions of bridges follow the written chain, without caps; N, C: chain ends. Non-standard residues stand in square brackets, D forms with d. Residues, ends and D or L forms follow the SMILES beside them. *: point of attachment. X1 = CC[C@H](C)CCCCC(=O)*; Dab = NCC[C@H](N)C(=O)O
measurement kind: level at 50.5 h (ng/mL)

• CC[C@H](C)CCCCC(=O)N[C@@H](CCN)C(=O)N[C@H](C(=O)N[C@@H](CCN)C(=O)N[C@H]1CCNC(=O)[C@H]([C@@H](C)O)NC(=O)[C@H](CCN)NC(=O)[C@H](CCN)NC(=O)[C@H](CC(C)C)NC(=O)[C@@H](Cc2ccccc2)NC(=O)[C@H](CCN)NC1=O)[C@@H](C)O [polymyxin B] (X1-[Dab]T[Dab][Dab][Dab][dF]L[Dab][Dab]T; lactam 4-C) = 1140

----------
Test: Steady-state plasma concentrations of polymyxin B (total of B1, B2, B1-Ile) by LC-MS/MS
Format: in vivo
Conditions: human, iv, patient ID 5, TIME 182, DOSE 100 at 0 then 50 from 12, ADDL 15, II 12, DUR 1, WT 60, CCR 41.15, ALB 36.1, APACHE 21, single sample, read-out: OUT (observed polymyxin B plasma concentration)
Excerpt: We gather data from critically ill patients (≥18 years old) who were given intravenous drip polymyxin B treatment with blood concentration monitoring at the hospital from November 2021 to September 2022. […] According to previous studies, total polymyxin B1, polymyxin B2, and polymyxin B1-Ile concentrations in human blood plasma were quantified using LC-MS/MS ([Meng et al., 2016]; [Hee et al., 2017]). […]
Positions of bridges follow the written chain, without caps; N, C: chain ends. Non-standard residues stand in square brackets, D forms with d. Residues, ends and D or L forms follow the SMILES beside them. *: point of attachment. X1 = CC[C@H](C)CCCCC(=O)*; Dab = NCC[C@H](N)C(=O)O
measurement kind: level at 182 h (ng/mL)

- CC[C@H](C)CCCCC(=O)N[C@@H](CCN)C(=O)N[C@H](C(=O)N[C@@H](CCN)C(=O)N[C@H]1CCNC(=O)[C@H]([C@@H](C)O)NC(=O)[C@H](CCN)NC(=O)[C@H](CCN)NC(=O)[C@H](CC(C)C)NC(=O)[C@@H](Cc2ccccc2)NC(=O)[C@H](CCN)NC1=O)[C@@H](C)O [polymyxin B] (X1-[Dab]T[Dab][Dab][Dab][dF]L[Dab][Dab]T; lactam 4-C): 4510

----------
assay: Steady-state plasma concentrations of polymyxin B (total of B1, B2, B1-Ile) by LC-MS/MS; format: in vivo; settings: human, iv, 50 mg, patient ID 18, TIME 72, DOSE 50 at 0, 12, 24, 36, 48, 60, DUR 2, WT 80, CCR 169.94, ALB 41.5, APACHE 29, single measurement, read-out: OUT (observed polymyxin B plasma concentration)
Positions of bridges follow the written chain, without caps; N, C: chain ends. Non-standard residues stand in square brackets, D forms with d. Residues, ends and D or L forms follow the SMILES beside them. *: point of attachment. X1 = CC[C@H](C)CCCCC(=O)*; Dab = NCC[C@H](N)C(=O)O
measurement kind: level at 72 h

- CC[C@H](C)CCCCC(=O)N[C@@H](CCN)C(=O)N[C@H](C(=O)N[C@@H](CCN)C(=O)N[C@H]1CCNC(=O)[C@H]([C@@H](C)O)NC(=O)[C@H](CCN)NC(=O)[C@H](CCN)NC(=O)[C@H](CC(C)C)NC(=O)[C@@H](Cc2ccccc2)NC(=O)[C@H](CCN)NC1=O)[C@@H](C)O [polymyxin B] (X1-[Dab]T[Dab][Dab][Dab][dF]L[Dab][Dab]T; lactam 4-C): 839 ng/mL

----------
test: Population pharmacokinetic (PPK) model, non-parametric adaptive grid (Pmetrics), critically ill patients; format: in vivo, human; conditions: human, plasma, iv, data splitting, 80% of the data; read-out: CL, mean value (converted)
Positions of bridges follow the written chain, without caps; N, C: chain ends. Non-standard residues stand in square brackets, D forms with d. Residues, ends and D or L forms follow the SMILES beside them. *: point of attachment. X1 = CC[C@H](C)CCCCC(=O)*; Dab = NCC[C@H](N)C(=O)O
measurement kind: clearance (mL/min)

- CC[C@H](C)CCCCC(=O)N[C@@H](CCN)C(=O)N[C@H](C(=O)N[C@@H](CCN)C(=O)N[C@H]1CCNC(=O)[C@H]([C@@H](C)O)NC(=O)[C@H](CCN)NC(=O)[C@H](CCN)NC(=O)[C@H](CC(C)C)NC(=O)[C@@H](Cc2ccccc2)NC(=O)[C@H](CCN)NC1=O)[C@@H](C)O [polymyxin B] (X1-[Dab]T[Dab][Dab][Dab][dF]L[Dab][Dab]T; lactam 4-C): 22.5

----------
assay: Steady-state plasma concentrations of polymyxin B (total of B1, B2, B1-Ile) by LC-MS/MS; type: in vivo; conditions: human, iv, 50 mg, patient ID 16, TIME 169.25, DOSE 50 every 12 from 0 (DUR 2, ADDL 14), WT 65, CCR 75.18, ALB 32, APACHE 31, single measurement, read-out: OUT (observed polymyxin B plasma concentration)
Positions of bridges follow the written chain, without caps; N, C: chain ends. Non-standard residues stand in square brackets, D forms with d. Residues, ends and D or L forms follow the SMILES beside them. *: point of attachment. X1 = CC[C@H](C)CCCCC(=O)*; Dab = NCC[C@H](N)C(=O)O
measurement kind: level at 169.25 h (ng/mL)

- CC[C@H](C)CCCCC(=O)N[C@@H](CCN)C(=O)N[C@H](C(=O)N[C@@H](CCN)C(=O)N[C@H]1CCNC(=O)[C@H]([C@@H](C)O)NC(=O)[C@H](CCN)NC(=O)[C@H](CCN)NC(=O)[C@H](CC(C)C)NC(=O)[C@@H](Cc2ccccc2)NC(=O)[C@H](CCN)NC1=O)[C@@H](C)O [polymyxin B] (X1-[Dab]T[Dab][Dab][Dab][dF]L[Dab][Dab]T; lactam 4-C): 6980

----------
experiment: Steady-state plasma concentrations of polymyxin B (total of B1, B2, B1-Ile) by LC-MS/MS; type: in vivo; conditions: human, iv, 50 mg, patient ID 7, TIME 300, DOSE 50 from 0, ADDL 25, II 12, DUR 1, WT 52, CCR 121.16, ALB 32.1, APACHE 21, single sample, read-out: OUT (observed polymyxin B plasma concentration)
Positions of bridges follow the written chain, without caps; N, C: chain ends. Non-standard residues stand in square brackets, D forms with d. Residues, ends and D or L forms follow the SMILES beside them. *: point of attachment. X1 = CC[C@H](C)CCCCC(=O)*; Dab = NCC[C@H](N)C(=O)O
measurement kind: level at 300 h

- CC[C@H](C)CCCCC(=O)N[C@@H](CCN)C(=O)N[C@H](C(=O)N[C@@H](CCN)C(=O)N[C@H]1CCNC(=O)[C@H]([C@@H](C)O)NC(=O)[C@H](CCN)NC(=O)[C@H](CCN)NC(=O)[C@H](CC(C)C)NC(=O)[C@@H](Cc2ccccc2)NC(=O)[C@H](CCN)NC1=O)[C@@H](C)O [polymyxin B] (X1-[Dab]T[Dab][Dab][Dab][dF]L[Dab][Dab]T; lactam 4-C): 2640 ng/mL

----------
test: Steady-state plasma concentrations of polymyxin B (total of B1, B2, B1-Ile) by LC-MS/MS; type: in vivo; details: human, iv, patient ID 10, TIME 73.25, DOSE 100 at 0 then 50 every 12 to 72, DUR 1, WT 62, CCR 72.12, ALB 33.9, APACHE 17, single sample, read-out: OUT (observed polymyxin B plasma concentration)
Positions of bridges follow the written chain, without caps; N, C: chain ends. Non-standard residues stand in square brackets, D forms with d. Residues, ends and D or L forms follow the SMILES beside them. *: point of attachment. X1 = CC[C@H](C)CCCCC(=O)*; Dab = NCC[C@H](N)C(=O)O
measurement kind: level at 73.25 h

- CC[C@H](C)CCCCC(=O)N[C@@H](CCN)C(=O)N[C@H](C(=O)N[C@@H](CCN)C(=O)N[C@H]1CCNC(=O)[C@H]([C@@H](C)O)NC(=O)[C@H](CCN)NC(=O)[C@H](CCN)NC(=O)[C@H](CC(C)C)NC(=O)[C@@H](Cc2ccccc2)NC(=O)[C@H](CCN)NC1=O)[C@@H](C)O [polymyxin B] (X1-[Dab]T[Dab][Dab][Dab][dF]L[Dab][Dab]T; lactam 4-C): 6730 ng/mL
